target: T1, cTnI quality control product recombinant protein (human, UniProt P19429 1-210, limits assumed); assay: AMC biosensor, antibody on sensor
T1 construct: the assay paragraphs only say cTnI; also called cardiac troponin I; cTnI antigen
T1 sequence (P19429 whole entry): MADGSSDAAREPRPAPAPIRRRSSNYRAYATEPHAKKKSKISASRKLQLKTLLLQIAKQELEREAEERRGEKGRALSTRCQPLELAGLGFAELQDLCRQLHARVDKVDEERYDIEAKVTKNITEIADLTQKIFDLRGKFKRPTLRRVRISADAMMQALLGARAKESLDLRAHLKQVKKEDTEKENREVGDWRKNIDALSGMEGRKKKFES

binder	kon [M⁻¹ s⁻¹]
Anti-cTnI 7B9 monoclonal antibody (recombinant, Sample 1) (antibody, mouse IgG1, kappa, V domains shown, Recombinant mouse antibody expressed in CHO cells; also called WT; Anti-cTnI 7B9 antibody) VH: QVQLQQSGTELAKPGASVKFSCKASDYTFSTYWMYWIKQRPGQGLEWIGYLNPSSGHTEYNQRFKDKATLTADKSSSTAYMQLNSLTSEDSAVYYCARKYFGPFAMDYWGQGTSVTVSS VL: EIFLTQSPAIMSASPGEKVTMTCSASTTVSYAHWYQQKSGTSPKRWLYDSSKIASGIPVRFSGSGSGTSYSLTISSMEAEDAATYYCQNWSTQPYTFGGGTKLEIKR	28600
Mutation 1-16 (antibody, V domains shown) VH: QVQLQQSGTELAKPGASVKFSCKASGYTFSTYWMYWIKQRPGQGLEWIGYINPSSGHTDYNQKFKDKATLTADKSSSTAYMQLNSLTSEDSAVYYCARKYYGPFGMDYWGQGTSVTVSS VL: EIFLTQSPAIMSASPGEKVTMTCSASTTVSYVHWYQQKSGTSPKRWLYDTSKIASGIPVRFSGSGSGTSYSLTISSMEAEDAATYYCQQWSTQPYTFGGGTKLEIKR	47700
Mutation 1-4 (antibody, V domains shown) VH: QVQLQQSGTELAKPGASVKFSCKASGYTFSTYWMYWIKQRPGQGLEWIGYINPSSGHTDYNQRFKDKATLTADKSSSTAYMQLNSLTSEDSAVYYCARKYYGPFGMDYWGQGTSVTVSS VL: EIFLTQSPAIMSASPGEKVTMTCSASTTVSYVHWYQQKSGTSPKRWLYDTSKIASGIPVRFSGSGSGTSYSLTISSMEAEDAATYYCQQWSTNPYTFGGGTKLEIKR	36900
